Target sequence: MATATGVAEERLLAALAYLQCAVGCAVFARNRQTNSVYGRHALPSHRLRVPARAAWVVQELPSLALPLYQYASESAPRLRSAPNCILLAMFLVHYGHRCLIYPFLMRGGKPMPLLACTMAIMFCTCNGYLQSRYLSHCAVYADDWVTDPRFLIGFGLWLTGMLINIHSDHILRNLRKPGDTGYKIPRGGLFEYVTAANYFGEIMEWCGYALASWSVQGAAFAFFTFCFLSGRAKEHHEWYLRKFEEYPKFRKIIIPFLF
pIC50: −log10 of the molar value.
Field: pIC50. System: the protein given by its sequence. Provenance: assorted publications.
value-kind: pIC50

Use the examples below as a reference point.
>>> meas_value("CN1CC(c2ccc(/C=C/c3ccccc3)cc2)CCC1=O (centres undefined)")
6.97
>>> meas_value("O=C1C=CN2c3ccc(Cl)cc3CC[C@H]2C1")
6.34
>>> meas_value("CN(C(=O)[C@H]1CCC2C3CCC4NC(=O)C=C[C@]4(C)C3CC[C@@]21C)c1ccccc1 (some centres undefined)")
6.46
>>> meas_value("CC(C)CCCC(C)C1CCC2C3C(CC[C@]12C)[C@@]1(C)C=CC(=O)NC1C[C@@H]3C (some centres undefined)")
8.80
>>> meas_value("CCC[C@H]1CC2N(C)C(=O)CC[C@]2(C)C2CC[C@]3(C)C(C(C)CCCC(C)C)CCC3C21 (some centres undefined)")
7.70
>>> meas_value("C[C@]12C=CC(=O)NC1CCC1C2CC[C@@]2(C)C1CC[C@@H]2C(=O)Nc1ccccc1C(F)(F)F (some centres undefined)")
8.25
>>> meas_value("C[C@]12CCC3C(CNC4=CC(=O)CC[C@@]43C)C1CCC2C(=O)NC(c1ccccc1)c1ccccc1 (some centres undefined)")
6.73

A = O=C1C=C2CCc3cc(Cl)ccc3N2CC1
B = CC[C@H]1C=C2NC(=O)CC[C@]2(C)C2CC[C@]3(C)C(C(C)CCCC(C)C)CCC3C21 (some centres undefined)
Compare A and B by numeric pIC50 and name the larger one. Please indicate the selected item by its label. B
